These entries and their values trace back to patent US20260116991A1.

EC50 values by entry
- Experimental system: T1, human GPC3 on CHO-K1-human GPC3 cells (CHOK1-hGPC3.2B5) (human, UniProt P51654 25-554)
- T1 construct: whole, on cells
- Test name: FACS, CHOK1-hGPC3.2B5 cells;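 note: flow cytometry of humanized antibodies binding to the cells over one hour in the cold, read as cell mean fluorescence intensity, with EC50 obtained by curve fitting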
Reply numerically in nM, unit not repeated.

# Binder, EC50 (nM)
data = [
    ("hAb006LH3L1b (antibody, human IgG1, V domains shown, Humanized F3.38.7; VH H3 + VL L1b; expressed as human IgG1) VH: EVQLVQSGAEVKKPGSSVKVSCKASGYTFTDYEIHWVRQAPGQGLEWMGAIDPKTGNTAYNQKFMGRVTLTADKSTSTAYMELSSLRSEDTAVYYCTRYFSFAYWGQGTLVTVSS VL: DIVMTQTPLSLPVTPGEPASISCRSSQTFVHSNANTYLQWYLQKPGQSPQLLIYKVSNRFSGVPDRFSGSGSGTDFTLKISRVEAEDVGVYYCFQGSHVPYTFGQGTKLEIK", 0.97),
    ("hAb007LH2L1 (antibody, human IgG1, V domains shown, Humanized F3.81.19; VH H2 + VL L1; expressed as human IgG1) VH: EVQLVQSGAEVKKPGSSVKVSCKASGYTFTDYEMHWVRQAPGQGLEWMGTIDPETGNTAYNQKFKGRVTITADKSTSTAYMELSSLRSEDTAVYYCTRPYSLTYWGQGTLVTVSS VL: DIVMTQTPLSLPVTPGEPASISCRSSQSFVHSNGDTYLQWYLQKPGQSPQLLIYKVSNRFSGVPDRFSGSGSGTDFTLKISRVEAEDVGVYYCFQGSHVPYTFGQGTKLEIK", 6.56),
]

// field: EC50; key: hAb006LH3L1e (antibody, human IgG1, V domains shown, Humanized F3.38.7; VH H3 + VL L1e; expressed as human IgG1) VH: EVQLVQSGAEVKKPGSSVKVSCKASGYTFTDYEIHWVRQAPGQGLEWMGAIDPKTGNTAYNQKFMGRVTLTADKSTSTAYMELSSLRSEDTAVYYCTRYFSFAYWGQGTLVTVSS VL: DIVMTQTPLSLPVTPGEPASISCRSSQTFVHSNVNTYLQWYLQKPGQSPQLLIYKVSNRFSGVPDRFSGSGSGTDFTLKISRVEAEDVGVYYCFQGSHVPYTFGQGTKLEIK ; value = 2.06
